System: MDA-MB-231 cells
Cut-off 10% on Average (percentage cell inhibition), Dmastoparan MDA-MB231 12.5uM, inclusive. At or above means Criterion met; below means Criterion not met.

Check out these entries, answers already filled in.
CC[C@H](C)[C@H](N)C(=O)N[C@@H](CC(N)=O)C(=O)N[C@@H](CC(C)C)C(=O)N[C@@H](CCCCN)C(=O)N[C@@H](C)C(=O)N[C@@H](CC(C)C)C(=O)N[C@@H](C)C(=O)N[C@@H](C)C(=O)N[C@@H](CC(C)C)C(=O)N[C@@H](CCCNC(=N)N)C(=O)N[C@@H](CCCCN)C(=O)N[C@@H](CCCCN)C(=O)N[C@H](C(=O)N[C@@H](CC(C)C)C(N)=O)[C@@H](C)CC
Criterion met
CC[C@H](C)[C@H](N)C(=O)N[C@@H](CC(N)=O)C(=O)N[C@@H](CC(C)C)C(=O)N[C@@H](CCCCN)C(=O)N[C@@H](CC(C)C)C(=O)N[C@@H](CC(C)C)C(=O)N[C@@H](C)C(=O)N[C@@H](C)C(=O)N[C@@H](CC(C)C)C(=O)N[C@@H](C)C(=O)N[C@@H](CCCCN)C(=O)N[C@@H](CCCCN)C(=O)N[C@H](C(=O)N[C@@H](CC(C)C)C(N)=O)[C@@H](C)CC
Criterion met
CC[C@H](C)[C@H](N)C(=O)N[C@@H](CC(N)=O)C(=O)N[C@@H](CC(C)C)C(=O)N[C@@H](CCCCN)C(=O)N[C@@H](C)C(=O)N[C@@H](CC(C)C)C(=O)N[C@@H](C)C(=O)N[C@@H](C)C(=O)N[C@@H](CC(C)C)C(=O)N[C@@H](C)C(=O)N[C@@H](Cc1ccc(O)cc1)C(=O)N[C@@H](CCCCN)C(=O)N[C@H](C(=O)N[C@@H](CC(C)C)C(N)=O)[C@@H](C)CC
Criterion met
CC[C@H](C)[C@H](N)C(=O)N[C@@H](CC(N)=O)C(=O)N[C@@H](CC(C)C)C(=O)N[C@@H](CCCCN)C(=O)N[C@@H](C)C(=O)N[C@@H](CC(C)C)C(=O)N[C@@H](C)C(=O)N[C@@H](C)C(=O)N[C@@H](CC(C)C)C(=O)N[C@@H](C)C(=O)N[C@@H](CCCCN)C(=O)N[C@@H](CC(C)C)C(=O)N[C@H](C(=O)N[C@@H](CC(C)C)C(N)=O)[C@@H](C)CC
Criterion met

Could you tell me if the measured Average (percentage cell inhibition), Dmastoparan MDA-MB231 12.5uM of `CC[C@H](C)[C@H](N)C(=O)N[C@@H](CC(N)=O)C(=O)N[C@@H](CC(C)C)C(=O)N[C@@H](CCCCN)C(=O)N[C@@H](C)C(=O)N[C@@H](CC(C)C)C(=O)N[C@@H](C)C(=O)N[C@@H](C)C(=O)N[C@@H](CC(C)C)C(=O)N[C@@H](C)C(=O)N[C@@H](CCCCN)C(=O)N[C@@H](CCCCN)C(=O)N[C@@H](CCC(N)=O)C(=O)N[C@@H](CC(C)C)C(N)=O` reaches 10% or more?
Criterion not met
